- experiment.notes: BIAcore binding of proteins to heparin immobilised on a biosensor chip
- test.context: IL-4 WT and mutants binding to heparin; in M-1s-1 (unit assumed)
quantity: ka

INSERT INTO measurements (molecule, quantity, result_value) VALUES
  ('K42A: IL-4 mutant, baculovirus expressed (protein) HKCDITLQEIIKTLNSLTEQKTLCTELTVTDIFAASKNTTEAETFCRAATVLRQFYSHHEKDTRCLGATAQQFHRHKQLIRFLKRLDRNLWGLAGLNSCPVKEANQSTLENFLERLKTIMREKYSKCSS', 'ka', '4.63E+04'),
  ('R85A: IL-4 mutant, baculovirus expressed (protein) HKCDITLQEIIKTLNSLTEQKTLCTELTVTDIFAASKNTTEKETFCRAATVLRQFYSHHEKDTRCLGATAQQFHRHKQLIRFLKALDRNLWGLAGLNSCPVKEANQSTLENFLERLKTIMREKYSKCSS', 'ka', '1.04E+05'),
  ('K77A/R53A: IL-4 double mutant (protein) HKCDITLQEIIKTLNSLTEQKTLCTELTVTDIFAASKNTTEKETFCRAATVLAQFYSHHEKDTRCLGATAQQFHRHAQLIRFLKRLDRNLWGLAGLNSCPVKEANQSTLENFLERLKTIMREKYSKCSS', 'ka', '1.79E+04'),
  ('K77A: IL-4 mutant, baculovirus expressed (protein) HKCDITLQEIIKTLNSLTEQKTLCTELTVTDIFAASKNTTEKETFCRAATVLRQFYSHHEKDTRCLGATAQQFHRHAQLIRFLKRLDRNLWGLAGLNSCPVKEANQSTLENFLERLKTIMREKYSKCSS', 'ka', '6.42E+03'),
  ('R75A: IL-4 mutant, baculovirus expressed (protein) HKCDITLQEIIKTLNSLTEQKTLCTELTVTDIFAASKNTTEKETFCRAATVLRQFYSHHEKDTRCLGATAQQFHAHKQLIRFLKRLDRNLWGLAGLNSCPVKEANQSTLENFLERLKTIMREKYSKCSS', 'ka', '3.32E+04'),
  ('K77A/R85A: IL-4 double mutant (protein, UniProt P05112 25-153, looked up, variant K77A R85A) Interleukin-4: HKCDITLQEIIKTLNSLTEQKTLCTELTVTDIFAASKNTTEKETFCRAATVLRQFYSHHEKDTRCLGATAQQFHRHAQLIRFLKALDRNLWGLAGLNSCPVKEANQSTLENFLERLKTIMREKYSKCSS', 'ka', '1.51E+04'),
  ('K77A/K12A: IL-4 double mutant (protein, UniProt P05112 25-153, looked up, variant K77A K12A) Interleukin-4: HKCDITLQEIIATLNSLTEQKTLCTELTVTDIFAASKNTTEKETFCRAATVLRQFYSHHEKDTRCLGATAQQFHRHAQLIRFLKRLDRNLWGLAGLNSCPVKEANQSTLENFLERLKTIMREKYSKCSS', 'ka', '1.65E+04'),
  ('D87A: IL-4 mutant, baculovirus expressed (protein, UniProt P05112 25-153, looked up, variant D87A) Interleukin-4: HKCDITLQEIIKTLNSLTEQKTLCTELTVTDIFAASKNTTEKETFCRAATVLRQFYSHHEKDTRCLGATAQQFHRHKQLIRFLKRLARNLWGLAGLNSCPVKEANQSTLENFLERLKTIMREKYSKCSS', 'ka', '4.42E+04'),
  ('R53A: IL-4 mutant, baculovirus expressed (protein) HKCDITLQEIIKTLNSLTEQKTLCTELTVTDIFAASKNTTEKETFCRAATVLAQFYSHHEKDTRCLGATAQQFHRHKQLIRFLKRLDRNLWGLAGLNSCPVKEANQSTLENFLERLKTIMREKYSKCSS', 'ka', '5.83E+04'),
  ('K21A: IL-4 mutant, baculovirus expressed (protein) HKCDITLQEIIKTLNSLTEQATLCTELTVTDIFAASKNTTEKETFCRAATVLRQFYSHHEKDTRCLGATAQQFHRHKQLIRFLKRLDRNLWGLAGLNSCPVKEANQSTLENFLERLKTIMREKYSKCSS', 'ka', '4.86E+04'),
  ('K77A/R88V: IL-4 double mutant (protein, UniProt P05112 25-153, looked up, variant K77A R88V) Interleukin-4: HKCDITLQEIIKTLNSLTEQKTLCTELTVTDIFAASKNTTEKETFCRAATVLRQFYSHHEKDTRCLGATAQQFHRHAQLIRFLKRLDVNLWGLAGLNSCPVKEANQSTLENFLERLKTIMREKYSKCSS', 'ka', '1.36E+04'),
  ('R81A: IL-4 mutant, baculovirus expressed (protein) HKCDITLQEIIKTLNSLTEQKTLCTELTVTDIFAASKNTTEKETFCRAATVLRQFYSHHEKDTRCLGATAQQFHRHKQLIAFLKRLDRNLWGLAGLNSCPVKEANQSTLENFLERLKTIMREKYSKCSS', 'ka', '2.43E+04');
